- TARGET OR TEST SYSTEM: PDE1A (Homo sapiens, UniProt P54750)
- Construct: purchased Reaction Biology Corporation, Malvern, Pa
- Sequence (P54750 whole entry): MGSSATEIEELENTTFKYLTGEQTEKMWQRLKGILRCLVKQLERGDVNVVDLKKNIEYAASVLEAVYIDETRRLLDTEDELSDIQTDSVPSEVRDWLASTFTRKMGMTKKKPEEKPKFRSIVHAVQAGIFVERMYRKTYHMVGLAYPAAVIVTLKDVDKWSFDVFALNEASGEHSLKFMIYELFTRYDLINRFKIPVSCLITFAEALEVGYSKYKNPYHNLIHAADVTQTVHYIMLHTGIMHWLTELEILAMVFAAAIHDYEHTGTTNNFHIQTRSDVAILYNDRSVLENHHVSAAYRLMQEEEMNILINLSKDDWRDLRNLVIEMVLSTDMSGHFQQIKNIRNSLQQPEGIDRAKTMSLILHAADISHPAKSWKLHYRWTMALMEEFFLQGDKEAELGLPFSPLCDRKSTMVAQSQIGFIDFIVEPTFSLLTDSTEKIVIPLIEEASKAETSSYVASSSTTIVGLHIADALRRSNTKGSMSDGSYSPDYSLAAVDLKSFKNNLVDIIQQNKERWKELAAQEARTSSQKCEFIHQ
- ASSAY DETAILS: Phosphodiesterase Enzyme Screening Assay, PDE1A (selectivity versus PDE9A2)
- Format: biochemical
- CONDITION INFO: ratio of IC50 values; value greater than 1 indicates greater selectivity for PDE9A2
ASSAY READOUT: PDE1A selectivity (versus PDE9A2)
Could you respond with only the numeric value?

Sample answers from the record:
compound="C[C@@H]1CN(Cc2cccc(C#N)c2)C[C@H]1c1nn2c(C3CCOCC3)ncc2c(=O)[nH]1 (single isomer, unassigned)" target_or_test_system="PDE1A (Homo sapiens, UniProt P54750)" assay_readout="PDE1A selectivity (versus PDE9A2)" test_result=942
compound="C[C@@H]1CN(Cc2ccc(C#N)cc2)C[C@H]1c1nn2c(C3CCOCC3)ncc2c(=O)[nH]1 (single isomer, unassigned)" target_or_test_system="PDE1A (Homo sapiens, UniProt P54750)" assay_readout="PDE1A selectivity (versus PDE9A2)" test_result=640
compound="C[C@@H]1CN(Cc2ccccc2C#N)C[C@H]1c1nn2c(C3CCOCC3)ncc2c(=O)[nH]1 (single isomer, unassigned)" target_or_test_system="PDE1A (Homo sapiens, UniProt P54750)" assay_readout="PDE1A selectivity (versus PDE9A2)" test_result=241
compound="CC1CN(Cc2ccccc2)CC1c1nn2c(C3CCCOC3)ncc2c(=O)[nH]1 (single isomer, unassigned) [2-((3,4-trans)-1-benzyl-4-methylpyrrolidin-3-yl)-7-(tetrahyd]" target_or_test_system="PDE1A (Homo sapiens, UniProt P54750)" assay_readout="PDE1A selectivity (versus PDE9A2)" test_result=28

Query C[C@@H]1CN(Cc2ccc3ccccc3n2)C[C@H]1c1nn2c(C3CCOCC3)ncc2c(=O)[nH]1 (single isomer, unassigned) [(+)-2-((3,4-trans)-4-methyl-1-(quinolin-2-ylmethyl)pyrrolidi] yields PDE1A selectivity (versus PDE9A2) of 621

C[C@@H]1CN(Cc2cn3ncccc3n2)C[C@H]1c1nn2c(C3CCOCC3)ncc2c(=O)[nH]1 (single isomer, unassigned) [(+)-2-((3,4-trans)-1-(imidazo[1,2-b]pyridazin-2-ylmethyl)-4-] yielded PDE1A selectivity (versus PDE9A2) of 1005

---

- TARGET OR TEST SYSTEM: PDE9A2 (Homo sapiens, UniProt O76083)
- Construct: purchased Reaction Biology Corporation, Malvern, Pa
- Sequence (O76083 1-533 isoform O76083-2): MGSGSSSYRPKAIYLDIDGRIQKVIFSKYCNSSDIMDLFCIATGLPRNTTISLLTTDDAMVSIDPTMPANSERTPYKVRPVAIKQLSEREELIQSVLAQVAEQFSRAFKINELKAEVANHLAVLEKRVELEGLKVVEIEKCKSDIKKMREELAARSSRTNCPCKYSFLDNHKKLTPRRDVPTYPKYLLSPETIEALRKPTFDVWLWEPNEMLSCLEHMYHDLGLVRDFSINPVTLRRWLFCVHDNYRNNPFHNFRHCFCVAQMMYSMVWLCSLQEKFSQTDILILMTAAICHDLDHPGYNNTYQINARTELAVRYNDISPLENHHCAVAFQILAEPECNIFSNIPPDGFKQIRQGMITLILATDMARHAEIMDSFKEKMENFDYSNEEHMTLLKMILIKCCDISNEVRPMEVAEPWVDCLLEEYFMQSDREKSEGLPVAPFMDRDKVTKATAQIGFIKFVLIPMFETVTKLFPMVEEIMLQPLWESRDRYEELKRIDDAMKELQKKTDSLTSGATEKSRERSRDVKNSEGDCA
- ASSAY DETAILS: Phosphodiesterase Enzyme Screening Assay, PDE9A2 (Caliper LabChip mobility-shift)
- Type: biochemical
- CONDITION INFO: 10 concentrations, 4.0 μM cGMP substrate, 1 hour at R.T.; read-out: Band (PDE9A2 IC50)
pIC50: −log10 of the molar value.
Catalogue of pIC50 values

compound="CC1CN(Cc2ccccc2)CC1c1nn2c(C34CC5CC(CC(C5)C3)C4)ncc2c(=O)[nH]1 (single isomer, unassigned; (-))" assay_readout=pIC50 test_result="< 5.00"

Could you now look at the following compound, please?
// pIC50 value for C[C@@H]1CN(Cc2ccc3ccccc3n2)C[C@H]1c1nn2c(C3CCOCC3)ncc2c(=O)[nH]1 (single isomer, unassigned) [(−)-2-((3,4-trans)-4-methyl-1-(quinolin-2-ylmethyl)pyrrolidi] : > 6.00

---

pIC50: recorded values
- TARGET OR TEST SYSTEM: UniProtKB O76083
pIC50: −log10 of the molar value.

As a guide, the following entries are already answered.
molecule="C[C@@H]1CN(Cc2ncc3ccccc3n2)C[C@H]1c1nn2c(C3CCOCC3)ncc2c(=O)[nH]1 (single isomer, unassigned)" assay_readout=pIC50 test_result="> 6.00"
molecule="C[C@@H]1CN(Cc2ccccc2)C[C@H]1c1nn2c(-c3ccoc3)ncc2c(=O)[nH]1 (single isomer, unassigned)" assay_readout=pIC50 test_result="> 6.00"
molecule="C[C@@H]1CN(Cc2ncccn2)C[C@H]1c1nn2c(C3CCOCC3)ncc2c(=O)[nH]1 (single isomer, unassigned)" assay_readout=pIC50 test_result="> 6.00"
molecule="CC1CN(Cc2ncccn2)CC1c1nn2c(C34CC5CC(CC(C5)C3)C4)ncc2c(=O)[nH]1 (single isomer, unassigned; (+))" assay_readout=pIC50 test_result="> 6.00"

// next item, pIC50 requested
UniProtKB O76083 assay, molecule CCS(=O)(=O)N1CCC(c2ncc3c(=O)[nH]c([C@@H]4CN(Cc5ncccn5)C[C@H]4C)nn23)CC1 (single isomer, unassigned) , recorded pIC50 = 5.00 to 6.00

---

Form: system (PDE9A2 (Homo sapiens)), quantity (IC50), values below.

In the examples that follow, each entry is paired with its recorded IC50.
molecule="C[C@@H]1CN(Cc2cn3ncccc3n2)C[C@H]1c1nn2c(C3CCOCC3)ncc2c(=O)[nH]1 (single isomer, unassigned)" test_result="< 1000 nM"
molecule="C[C@@H]1CN(Cc2ccccc2C#N)C[C@H]1c1nn2c(C3CCOCC3)ncc2c(=O)[nH]1 (single isomer, unassigned)" test_result="< 1000 nM"
molecule="CCS(=O)(=O)N1CCC(c2ncc3c(=O)[nH]c([C@@H]4CN(Cc5ccccc5)C[C@H]4C)nn23)CC1 (single isomer, unassigned)" test_result="< 1000 nM"
molecule="C[C@@H]1CN(Cc2ncc3ccccc3n2)C[C@H]1c1nn2c(C3CCOCC3)ncc2c(=O)[nH]1 (single isomer, unassigned) [(−)-2-((3,4-trans)-4-methyl-1-(quinazolin-2-ylmethyl)pyrroli]" test_result="< 1000 nM"

IC50 value, target or system PDE9A2 (Homo sapiens), for C[C@@H]1CN(Cc2ccc(F)cc2)C[C@H]1c1nn2c(C3CCOCC3)ncc2c(=O)[nH]1 (single isomer, unassigned) : < 1000 nM

Kindly note: PDE9A2 (Homo sapiens), Cc1ccccc1-c1ncc2c(=O)[nH]c([C@@H]3CN(Cc4ncccn4)C[C@H]3C)nn12 (single isomer, unassigned) , IC50 value reported: 1000 to 10000 nM
